Test system: COLO 205 colon
assay procedure: NCI-60 one-dose screen, 48 h (100 = growth as untreated, 0 = no growth, -100 = all killed)
applied conditions: 10 µM unless noted
About 83,000 compounds went through this panel and 20% of them were active in at least one assay; those are over-represented in the sample as a whole.
Could you please mark T for values of growth below 20% and F for values at or above it?

smiles str	class
CN1CCN(C(=O)[C@@]2(C)CC[C@]3(C)CC[C@]4(C)C(=CC[C@@H]5[C@@]6(C)CCC(=O)NC(C)(C)[C@@H]6CC[C@]54C)[C@@H]3C2)CC1	T
CC1(C)[C@@H](O[C@@H]2OC[C@@H](O[C@@H]3O[C@H](CO)[C@@H](O)[C@H](O)[C@H]3O[C@@H]3OC[C@@H](O)[C@H](O)[C@H]3O)[C@H](O)[C@H]2O[C@@H]2O[C@H](CO)[C@@H](O)[C@H](O)[C@H]2O)CC[C@]2(C)[C@H]3CC[C@]45OC[C@@]6(CC[C@](C)(C=O)C[C@H]64)[C@H](O)C[C@@]5(C)[C@]3(C)CC[C@@H]12	T
O=S(=O)(NCCNc1nccc(-c2c(-c3cccc(O)c3)nc3occn23)n1)c1ccc(Br)cc1	T
CCc1ccc(CCC(=O)Nc2ncc(Cc3ccccc3)s2)o1	T
O=C1c2ccccc2C(=O)c2c1c(C(=O)NCc1ccccc1)c1ccccn21	F
O=C(Nc1cc(Cl)ccc1O)c1cccc(Nc2ccnc(C(F)(F)F)c2)c1	F
CCNc1ccc(-c2nc3ccccc3n3cccc23)cc1	F
